Source: PubChem BioAssay AID1159580

# PROTOCOL_DESCRIPTION: chemical genetic growth profiling, strain panel (AID 1159580);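 note: tested at 20 µM; growth read once vehicle control cultures reached saturation at 30 °C; 1 = growth at the plate median or of vehicle wells; lower values mean less growth of the strain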
# ASSAY_CONTEXT: S. cerevisiae deletion strains, growth OD, locus YHR142W, strain chs7, active compounds read low
Hit rate of the full screen: of about 5,500 compounds, about 2,000 (36%) were called active. Roughly 18% stayed inconclusive and do not appear here. This is one part of the list.
For each entry below, report its normalized growth value.

Solved entries:
CCOC(=O)c1ccc(N)cc1	0.963 (inactive)
CN(Cc1cnc2nc(N)nc(N)c2n1)c1ccc(C(=O)NC(CCC(=O)O)C(=O)O)cc1 (configuration not stated)	0.86 (active)
CC(=O)OCC(=O)[C@@]12OC(C)(C)O[C@@H]1CC1C3C[C@H](F)C4=CC(=O)C=C[C@]4(C)[C@@]3(F)[C@@H](O)C[C@@]12C (some centres not stated)	1.04 (inactive)
CC(=O)O[C@H]1CC[C@@]2(C)C(=CCC3C2CC[C@]2(C)C(=O)CCC32)C1 (some centres not stated)	0.877 (inactive)
C=CC1=C(C)/C(=C/c2[nH]c(Cc3[nH]c(/C=C4\NC(=O)C(C)=C4C=C)c(C)c3CCC(=O)O)c(CCC(=O)O)c2C)NC1=O	0.932 (inactive)
O=C(O)c1cc(=O)c(O)c2c(O)c(O)c(O)cc2c1	0.363 (active)

Continue with the next compound.
Dear colleague, I am looking for the recorded normalized growth of the following compound: CC(=O)O[C@H]1CC[C@@]2(C)C(=CCC3C2CC[C@@]2(C)C3CC[C@@H]2C(C)CCCC(C)C)C1 (some centres not stated) 1.01 (inactive)

====

# PROTOCOL_DESCRIPTION: chemical genetic growth profiling, strain panel (AID 1159580);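 note: tested at 20 µM; growth read once vehicle control cultures reached saturation at 30 °C; 1 = growth at the plate median or of vehicle wells; lower values mean less growth of the strain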
# ASSAY_CONTEXT: S. cerevisiae deletion strains, growth OD, locus YCL011C, strain gbp2, active compounds read low
Among all 5,500 compounds or so, about 2,000 (36%) were called active. Inconclusive results (about 18%) are left out. The list shows a part of the results.
Task for the reader: assign each of the following compounds its reported normalized growth.
One number for each entry.

Solved entries (count: 4):
O=C(O)c1cc(=O)c(O)c2c(O)c(O)ccc2c1	0.996
O=C(/C=C/c1ccc(O)c(O)c1)O[C@@H]1C[C@](O)(C(=O)O)C[C@@H](O)[C@H]1O	0.985
COP(=S)(OC)Oc1ccc(SC)c(C)c1	0.955
CC12CCCC(O)(C1)C1CC(C)(C)C1CC2 (configuration not stated)	0.965

Could you report normalized growth for every entry in the following list?
1. CC1(C)C2CC(=O)O[C@@]3(C)C4=CC(=O)O[C@@H](c5ccoc5)[C@]4(C)CCC3[C@@]2(C)C=C[C@H]1O (some centres not stated)
2. CC1(C)CC2C1CCC1(C)OC1CCC2(C)O (configuration not stated)
3. CCOP(=S)(OCC)Oc1ccc2c(C)c(Cl)c(=O)oc2c1

[0.967, 1.04, 0.906]

Could you tell me normalized growth for each of these compounds? They are listed below.
1. O=C(O)c1cc(=O)c(O)c2c(O)c(O)c(O)cc2c1
2. CC[C@@]1(C2O[C@@H](C3O[C@@](O)(CC)[C@H](C)C[C@@H]3C)C[C@@H]2C)CC[C@H]([C@]2(C)CCC3(C[C@H](O)[C@@H](C)[C@@H]([C@H](C)[C@@H](OC)[C@H](C)C(=O)O)O3)O2)O1 (some centres not stated)
3. Cc1ccc(C(C)C)cc2c(C)ccc1-2
4. CCN(CC)CCOC(=O)C(Cc1cccc2ccccc12)CC1CCCO1 (configuration not stated)

[0.72, 0.991, 1.01, 1.01]

Record normalized growth per entry; entries follow.
1. COc1ccc(C[C@H](N)C(=O)N[C@@H]2[C@@H](CO)OC(n3cnc4c(N(C)C)ncnc43)[C@@H]2O)cc1 (some centres not stated)
2. CC[C@]12CCCN3CCc4c(n(c5ccccc45)[C@](O)(C(=O)OC)C1)[C@@H]32

1. 1
2. 0.985

Provide normalized growth values for the following items, in order.
1. C=CC1=C(C)/C(=C/c2[nH]c(Cc3[nH]c(/C=C4\NC(=O)C(C)=C4C=C)c(C)c3CCC(=O)O)c(CCC(=O)O)c2C)NC1=O
2. CC1(C)CC2C1CCC1(C)OC2(C)CCC1O (configuration not stated)
3. CCC(COC(=O)c1cc(OC)c(OC)c(OC)c1)(c1ccccc1)N(C)C (configuration not stated)
4. CCCN(CCC)C(=O)C(CCC(=O)O)NC(=O)c1ccccc1 (configuration not stated)

[0.984, 1.02, 0.969, 0.983]
